The values you see were collected from BindingDB's records for doi:10.1021/acs.jmedchem.8b00931.

- Assay Notes: Inhibition of Rhinovirus A08 capsid infected in human HeLa Rh cells assessed as reduction in virus-induced cytopathic effect after 3 days by MTS assay
pEC50: −log10 of the molar value.

Molecule: Cn1cc(-c2ccc(C[C@@H](O)c3ccc(-n4cccn4)cc3)c([N+](=O)[O-])c2)cn1
pEC50: < 3.89

Molecule: Cc1cc(CCCOc2c(C)cc(-c3noc(C(F)(F)F)n3)cc2C)on1
pEC50: 6.31

Molecule: Cn1cc(-c2ccc(C[C@H](O)c3ccc(-n4cccn4)cc3)c([N+](=O)[O-])c2)cn1
pEC50: < 3.89

Molecule: Cn1cc(-c2ccc(C[C@@H](O)c3ccc(-n4cncn4)cc3)c([N+](=O)[O-])c2)cn1
pEC50: < 3.89

Molecule: Cn1cc(-c2ccc(C[C@H](O)c3ccc(-n4cncn4)cc3)c([N+](=O)[O-])c2)cn1
pEC50: < 3.89
